System: T-47D breast
Experiment: NCI-60 one-dose screen, 48 h
Conditions: 10 µM unless noted
Compounds without any hit were thinned out: in the full panel of roughly 83,000, 20% have a hit. Calls of active or inactive are those of the source. The calls were made as follows: active = growth percent below 10; inactive = the rest. Where a SMILES comes first, the peptide text is derived from it. The star is where a group is joined. Trt = c1ccc(C(c2ccccc2)(c2ccccc2)*)cc1; Cbz = O=C(OCc1ccccc1)*
Labels: active, inactive

{"compound": "Cn1c2ccccc2c2nnc(N/N=C/c3ccccn3)nc21", "label-class": "inactive"}
{"compound": "CC(C)c1ccc2nc3ccc(C(=O)NCCN4CCN(c5ccccc5)CC4)cn3c(=O)c2c1", "label-class": "inactive"}
{"compound": "O=C(Nc1ccccc1)c1cc(Cl)ccc1O", "label-class": "inactive"}
{"compound": "NC(=S)N/N=C\\c1nccc2c(C(F)(F)C(F)(F)C(F)(F)F)cccc12", "label-class": "active"}
{"compound": "Cc1ccnc(NC(c2ccccc2)c2ccc3cccnc3c2O)c1 (stereo not given)", "label-class": "inactive"}
{"compound": "C=C(Cl)C(=NC(C)(C)C)Nc1ccccc1C", "label-class": "inactive"}
{"compound": "N[C@H](C(=O)O)[C@@H]1CC(Cl)=NO1", "label-class": "inactive"}
{"compound": "CC1(C)CC([P+](c2ccccc2)(c2ccccc2)c2ccccc2)=NN1", "label-class": "active"}
{"compound": "COc1cc(NS(C)(=O)=O)ccc1Nc1c2ccccc2nc2ccccc12", "label-class": "inactive"}
{"compound": "CC(=O)C(=Cc1ccc(C=C(C(C)=O)C(C)=O)cc1)C(C)=O", "label-class": "inactive"}
{"compound": "c1ccc2c(c1)Nc1cc3ccccc3cc1N2", "label-class": "inactive"}
{"compound": "O=C(/C=C\\c1ccccc1)N1c2ccccc2CC1c1c[nH]c2ccccc12 (stereo not given)", "label-class": "inactive"}
{"compound": "Cn1c2c(c3ccccc31)CCN1C[C@@H]3CCCC[C@H]3C[C@@H]21", "label-class": "inactive"}
{"compound": "CN(C)CCOc1ccc2c(c1)C(=O)/C(=C\\c1ncc([N+](=O)[O-])n1C)C2", "label-class": "inactive"}
{"compound": "COC(=O)C(CSC(c1ccccc1)(c1ccccc1)c1ccccc1)NC(=O)C(CC(N)=O)NC(=O)OCc1ccccc1 (stereo not drawn) (Cbz-Asn-Cys(Trt)-OMe; configuration not given here)", "label-class": "active"}
{"compound": "O=C1C=CC(=O)N1C1c2ccccc2-c2ccccc21", "label-class": "inactive"}
{"compound": "Nc1ccc(SSc2ccc(N)cc2)cc1", "label-class": "inactive"}
{"compound": "Cc1ccc2nc(C[n+]3ccc4ccccc4c3)ccc2c1", "label-class": "inactive"}
{"compound": "CCCCCCCCCCCCCCCCOP(=O)([O-])OCC[N+](C)(C)C", "label-class": "inactive"}
{"compound": "Cc1ccc2nc(-[n+]3cc4ccccc4cc3C)ccc2c1", "label-class": "inactive"}
{"compound": "C=CCOc1ccc(N=NC(C#N)C#N)cc1", "label-class": "active"}
{"compound": "COC(=O)c1nc(=S)[nH]c(C(=O)OC)c1C(=O)c1ccccn1", "label-class": "inactive"}
{"compound": "O=[N+]([O-])c1ccc2c(N=Nc3ccc4ccccc4c3O)c(O)cc(S(=O)(=O)O)c2c1", "label-class": "inactive"}
{"compound": "NC1=CC(=O)c2ccccc2C1=O", "label-class": "inactive"}
{"compound": "Oc1ccc(/C=N/NC(=S)Nc2ccccc2)nc1", "label-class": "inactive"}
{"compound": "CCOC(=O)c1c(C)[nH]c(CO)c1C", "label-class": "inactive"}
{"compound": "CCCCCCC(C)c1ccccc1O (stereo not given) (tested in a mixture with another compound)", "label-class": "inactive"}
{"compound": "O=C1c2ccccc2C(=O)c2sc(Nc3ccc(Cl)cc3)nc21", "label-class": "inactive"}
{"compound": "COc1ccccc1/C=C\\C(=O)c1ccccc1", "label-class": "inactive"}
{"compound": "C/C=C1\\SC(=S)NC1=O", "label-class": "inactive"}
